Answer each item with its documented % Inhibition (Statistical Average) Overflow Volume at 5 min..
# System: LTD4 induced bronchoconstriction
# Method: in vivo inhibition of LTD4-induced bronchospasm in guinea pigs
# Set-up: species or system guinea pig (male Hartley)
# Condition Label: 50 mg/kg intraduodenal; 10 minutes before induction of bronchospasm by LTD4; average of 6 experiments
# value in %; strip the unit string

Prompt line: Entry under review: O=S(=O)(Nc1ccc2ccc(OCc3ccc4ccccc4n3)cc2c1)C(F)(F)F . Reported % Inhibition (Statistical Average) Overflow Volume at 5 min.?
Response line: 99.0

Prompt line: Entry under review: CCS(=O)(=O)Nc1ccc2ccc(OCc3ccc4ccccc4n3)cc2c1 . Reported % Inhibition (Statistical Average) Overflow Volume at 5 min.?
Response line: 90.6

Prompt line: Entry under review: OC1CCCc2ccc(OCc3ccc4ccccc4n3)cc21 (stereo not shown) . Reported % Inhibition (Statistical Average) Overflow Volume at 5 min.?
Response line: 56.1

Prompt line: Entry under review: Nc1ccc2ccc(OCc3ccc4ccccc4n3)cc2c1 . Reported % Inhibition (Statistical Average) Overflow Volume at 5 min.?
Response line: 88.7

Each recorded value in this set is attributed to patent US4661596A.
